# Test method notes: in vivo
# Assay conditions: male, Sprague-Dawley, rat, iv, 15 mg/kg, Tmax, male rats, brain, nirmatrelvir 15 mg/kg i.v. plus ritonavir 7 mg/kg i.v.
Quantity kind: Tmax (min)
Number only, in min; omit the unit.

Ask: Give the value of Tmax reported for the following: CC(C)(C)[C@H](NC(=O)C(F)(F)F)C(=O)N1C[C@H]2[C@@H]([C@H]1C(=O)N[C@H](C#N)C[C@@H]1CCNC1=O)C2(C)C [Nirmatrelvir]
Reply: 27

###

# Test method notes: in vivo
# Assay conditions: female, Sprague-Dawley, rat, iv, 15 mg/kg, Cmax, pregnant rats, maternal blood, nirmatrelvir 15 mg/kg i.v. alone
Quantity kind: Cmax (µg/mL)
Number only, in µg/mL; omit the unit.

Ask: Give the value of Cmax reported for the following: `CC(C)(C)[C@H](NC(=O)C(F)(F)F)C(=O)N1C[C@H]2[C@@H]([C@H]1C(=O)N[C@H](C#N)C[C@@H]1CCNC1=O)C2(C)C`
Reply: 156

Each recorded value in this set is attributed to paper PMC11702666.
